biological target: Pim-2 (Homo sapiens (Human)); assay: Pim-Mn enzyme assay (HTRF, 384-well), Pim-2; type: biochemical; conditions: Pim-2 enzyme 0.5 pM, ATP 1.5 μM, BAD (S112) 0.5 μM, HTRF, 22-point curve; read-out: Pim-2-Mn IC50 IP
Sequence (Q9P1W9 whole entry): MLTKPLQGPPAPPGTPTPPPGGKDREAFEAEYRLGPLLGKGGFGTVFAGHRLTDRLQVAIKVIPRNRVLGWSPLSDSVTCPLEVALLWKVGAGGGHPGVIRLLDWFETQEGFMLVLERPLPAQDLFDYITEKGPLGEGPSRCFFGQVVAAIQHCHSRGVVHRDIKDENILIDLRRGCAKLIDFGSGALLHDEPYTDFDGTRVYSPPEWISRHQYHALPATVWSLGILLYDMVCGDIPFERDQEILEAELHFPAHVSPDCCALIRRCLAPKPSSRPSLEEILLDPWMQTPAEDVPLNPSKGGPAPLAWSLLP
pIC50: −log10 of the molar value.
assay.endpoint: pIC50

[[record]]
compound = "Cc1nc2cccc(-c3cc4c([nH]3)CNC4=O)c2nc1NC1(C)CC1"
target_or_system = "Pim-2 (Homo sapiens (Human))"
assay_endpoint = "pIC50"
readout_number = 9.24

[[record]]
compound = "Cc1nc2cccc(-c3cc4c([nH]3)CCNC4=O)c2nc1NC(=O)C1CC1"
target_or_system = "Pim-2 (Homo sapiens (Human))"
assay_endpoint = "pIC50"
readout_number = 6.88

[[record]]
compound = "Cn1c(Nc2ccccc2)nc2c(-c3cc4c([nH]3)CCNC4=O)cccc2c1=O"
target_or_system = "Pim-2 (Homo sapiens (Human))"
assay_endpoint = "pIC50"
readout_number = 8.70

[[record]]
compound = "Cc1nc2cccc(-c3cc4c([nH]3)CCNC4=O)c2nc1-c1ccccc1F"
target_or_system = "Pim-2 (Homo sapiens (Human))"
assay_endpoint = "pIC50"
readout_number = 7.32

[[record]]
compound = "Cc1nc2cccc(-c3cc4c([nH]3)[C@@H](C)NC4=O)c2nc1N[C@H]1CCC[C@@H](N)C1"
target_or_system = "Pim-2 (Homo sapiens (Human))"
assay_endpoint = "pIC50"
readout_number = 10.45

[[record]]
compound = "C[C@H](O)c1nc2cccc(-c3cc4c([nH]3)CCNC4=O)c2nc1NC(C)(C)C"
target_or_system = "Pim-2 (Homo sapiens (Human))"
assay_endpoint = "pIC50"
readout_number = 8.52

[[record]]
compound = "Cc1nc2cccc(-c3cc4c(=O)[nH]cnc4[nH]3)c2nc1F"
target_or_system = "Pim-2 (Homo sapiens (Human))"
assay_endpoint = "pIC50"
readout_number = 5.77

[[record]]
compound = "C[C@H]1NC(=O)c2cc(-c3cccc4c(=O)n(C)c(N[C@@H]5CCC[C@H](NC(=O)OC(C)(C)C)C5)nc34)[nH]c21 (racemic)"
target_or_system = "Pim-2 (Homo sapiens (Human))"
assay_endpoint = "pIC50"
readout_number = 7.82

[[record]]
compound = "Cc1nc2cccc(-c3cc4c([nH]3)CCNC4=O)c2nc1NC(C)(C)CS(C)(=O)=O"
target_or_system = "Pim-2 (Homo sapiens (Human))"
assay_endpoint = "pIC50"
readout_number = 7.40

[[record]]
compound = "CC(C)CC1CNC(=O)c2cc(-c3cccc4cccnc34)[nH]c21 (racemic)"
target_or_system = "Pim-2 (Homo sapiens (Human))"
assay_endpoint = "pIC50"
readout_number = 6.56

[[record]]
compound = "Cc1nc2cccc(-c3cc4c([nH]3)CCNC4=O)c2nc1OCC(C)(C)C"
target_or_system = "Pim-2 (Homo sapiens (Human))"
assay_endpoint = "pIC50"
readout_number = 7.35

[[record]]
compound = "COCCN(CCOC)CCC(C)(C)Nc1nc2c(-c3cc4c([nH]3)CNC4=O)cccc2c(=O)n1C"
target_or_system = "Pim-2 (Homo sapiens (Human))"
assay_endpoint = "pIC50"
readout_number = 7.44

[[record]]
compound = "C[C@H]1NC(=O)c2cc(-c3cccc4c(=O)[nH]c(NC(C)(C)C)nc34)[nH]c21"
target_or_system = "Pim-2 (Homo sapiens (Human))"
assay_endpoint = "pIC50"
readout_number = 9.62

[[record]]
compound = "C[C@H]1NC(=O)c2cc(-c3cccc4c(=O)n(CC(F)(F)F)c(NC(C)(C)C)nc34)[nH]c21"
target_or_system = "Pim-2 (Homo sapiens (Human))"
assay_endpoint = "pIC50"
readout_number = 9.72

[[record]]
compound = "Cc1nc2cccc(-c3cc4c([nH]3)CCNC4=O)c2nc1-c1ccccc1Cl"
target_or_system = "Pim-2 (Homo sapiens (Human))"
assay_endpoint = "pIC50"
readout_number = 7.09

[[record]]
compound = "CCc1nc2cccc(-c3cc4c([nH]3)CCNC4=O)c2nc1NC(C)(C)C"
target_or_system = "Pim-2 (Homo sapiens (Human))"
assay_endpoint = "pIC50"
readout_number = 9.71


----------
pIC50 overview
biological target: Pim-2 (Homo sapiens (Human)); assay: Pim enzyme assay (HTRF, 96-well), Pim-2; type: biochemical; settings: full length recombinant Pim-2, biotinylated-BAD (S112) peptide, 10-point curve, 45 min RT, read-out: Pim-2 IC50 IP
pIC50: −log10 of the molar value.
assay.endpoint: pIC50

[[record]]
compound = "O=C1NCCc2[nH]c(-c3cccc4ccc(Oc5cccc(O)c5)nc34)cc21"
readout_number = 7.80

[[record]]
compound = "O=C1NCCc2[nH]c(-c3cccc4ccc(Oc5ccccc5Cl)nc34)cc21"
readout_number = 7.74

[[record]]
compound = "O=C1NCCc2[nH]c(-c3cccc4ccc(Nc5cccc(Cl)c5)nc34)cc21"
readout_number = 7.84

[[record]]
compound = "Cc1nc2cccc(-c3cc4c([nH]3)CCNC4=O)c2nc1N[C@H]1CC[C@@H](N)C1 (single isomer, unassigned) [Example 142]"
readout_number = 8.28

[[record]]
compound = "COC(=O)N(c1ccccc1)c1ccc2cccc(-c3cc4c([nH]3)CCNC4=O)c2n1"
readout_number = 6.90

[[record]]
compound = "Cc1nc2cccc(-c3cc4c([nH]3)CCNC4=O)c2nc1NC1CCCCC1"
readout_number = 8.31

[[record]]
compound = "O=C1NCCc2[nH]c(-c3cccc4ccc(Sc5ccccc5)nc34)cc21"
readout_number = 7.94

[[record]]
compound = "O=C1NCCc2[nH]c(-c3cccc4ccc(N5CCOCC5)nc34)cc21"
readout_number = 6.94

[[record]]
compound = "CC1CNC(=O)c2cc(-c3cccc4ccc(Cl)nc34)[nH]c21 (racemic)"
readout_number = 6.44

[[record]]
compound = "Cc1cc2cccc(-c3cc4c([nH]3)CCNC4=O)c2nc1Nc1ccc(Br)cc1"
readout_number = 7.98

[[record]]
compound = "Cc1nc2cccc(-c3cc4c([nH]3)CCNC4=O)c2nc1NC1COC1"
readout_number = 7.94

[[record]]
compound = "O=C1NCCc2[nH]c(-c3cccc4cnc(Nc5ccccc5)nc34)cc21"
readout_number = 7.87

[[record]]
compound = "O=C1NCCc2[nH]c(-c3cccc4ccc(Nc5cccnc5)nc34)cc21"
readout_number = 9.15

[[record]]
compound = "O=C1NCCc2[nH]c(-c3cccc4ccc(Oc5ccc(F)cc5F)nc34)cc21"
readout_number = 7.68

[[record]]
compound = "O=c1[nH]ccc2[nH]c(-c3cccc4ccc(Oc5ccccc5)nc34)cc12"
readout_number = 7.36

[[record]]
compound = "Nc1ccc(-c2ccc3cccc(-c4cc5c([nH]4)CCNC5=O)c3n2)c(F)n1"
readout_number = 7.83

[[record]]
compound = "CC(Oc1ccc2cccc(-c3cc4c([nH]3)CCNC4=O)c2n1)C(F)(F)F (racemic)"
readout_number = 6.69


----------
molecular target: Pim-1 (Homo sapiens (Human), UniProt P11309); experiment: Pim enzyme assay (HTRF, 96-well), Pim-1; type: biochemical; settings: full length recombinant Pim-1, biotinylated-BAD (S112) peptide, 10-point curve, 2 h RT, read-out: Pim-1 IC50 IP
Sequence (P11309 whole entry): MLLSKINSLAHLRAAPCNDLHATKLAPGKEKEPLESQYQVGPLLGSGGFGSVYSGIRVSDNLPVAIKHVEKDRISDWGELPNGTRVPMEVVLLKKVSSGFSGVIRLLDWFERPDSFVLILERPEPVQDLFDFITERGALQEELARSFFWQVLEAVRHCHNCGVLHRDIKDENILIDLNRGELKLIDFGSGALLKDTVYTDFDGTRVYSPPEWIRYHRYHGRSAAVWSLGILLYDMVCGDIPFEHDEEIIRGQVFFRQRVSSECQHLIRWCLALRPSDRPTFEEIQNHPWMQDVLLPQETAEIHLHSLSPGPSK
Checkbox rule: IC50 lower than 20 nM = yes (1); IC50 not lower than 20 nM = no (0).

[[record]]
compound = "O=c1[nH]ccc2[nH]c(-c3cccc4ccc(Oc5ccccc5)nc34)cc12"
class_name = "yes (1)"

[[record]]
compound = "O=C1NCCc2[nH]c(-c3cccc4ccc(Nc5c(F)cccc5Cl)nc34)cc21"
class_name = "yes (1)"

[[record]]
compound = "O=C(Nc1ccccc1)c1ccc2cccc(-c3cc4c([nH]3)CCNC4=O)c2n1"
class_name = "no (0)"

[[record]]
compound = "Cc1nc2cccc(-c3cc4c([nH]3)CCNC4=O)c2nc1NC1COC1"
class_name = "no (0)"

[[record]]
compound = "Nc1ccc(-c2ccc3cccc(-c4cc5c([nH]4)CCNC5=O)c3n2)c(F)n1"
class_name = "yes (1)"

[[record]]
compound = "C=C(C)CNc1nc2c(-c3cc4c([nH]3)CCNC4=O)cccc2nc1C"
class_name = "yes (1)"

[[record]]
compound = "CCC1CNC(=O)c2cc(-c3cccc4ccc(Oc5ccccc5)nc34)[nH]c21 (racemic)"
class_name = "yes (1)"

[[record]]
compound = "O=C1NCCc2[nH]c(-c3cccc4cnc(Nc5ccccc5)nc34)cc21"
class_name = "yes (1)"


----------
biological target: Pim-1 (Homo sapiens (Human), UniProt P11309); assay: Pim-Mn enzyme assay (HTRF, 384-well), Pim-1; type: biochemical; conditions: Pim-1 enzyme 5 pM, ATP 1.5 μM, BAD (S112) 0.5 μM, HTRF, 22-point curve; read-out: Pim-1-Mn IC50 IP
pIC50: −log10 of the molar value. Structures can show the parent of a compound that is named as a salt.
Categorized via pIC50: class 0: < 8; class 1: ≥ 8 and < 9; class 2: ≥ 9

[[record]]
compound = "Cc1nc2cccc(-c3cc4c([nH]3)CCN(C(=O)OC(C)(C)C)C4=O)c2nc1NC(C)(C)C"
target_or_system = "Pim-1 (Homo sapiens (Human), UniProt P11309)"
class_name = "class 0"

[[record]]
compound = "Cc1nc2cccc(-c3cc4c([nH]3)CCNC4=O)c2nc1NC1CNC1"
target_or_system = "Pim-1 (Homo sapiens (Human), UniProt P11309)"
class_name = "class 1"

[[record]]
compound = "Cc1nc2cccc(-c3cc4c([nH]3)CCNC4=O)c2nc1N[C@H]1C[C@@H](NC(=O)OC(C)(C)C)C1"
target_or_system = "Pim-1 (Homo sapiens (Human), UniProt P11309)"
class_name = "class 0"

[[record]]
compound = "Cc1nc2cccc(-c3cc4c([nH]3)[C@@H](CO)NC4=O)c2nc1NC1(C)CC1"
target_or_system = "Pim-1 (Homo sapiens (Human), UniProt P11309)"
class_name = "class 2"

[[record]]
compound = "Cc1nc2cccc(-c3cc4c([nH]3)CCNC4=O)c2nc1N[C@H]1C[C@H](N)C1 [Example 437, hydrochloride]"
target_or_system = "Pim-1 (Homo sapiens (Human), UniProt P11309)"
class_name = "class 2"

[[record]]
compound = "C[C@H]1NC(=O)c2cc(-c3cccc4c(=O)n(C5CCOCC5)c(NC(C)(C)C)nc34)[nH]c21"
target_or_system = "Pim-1 (Homo sapiens (Human), UniProt P11309)"
class_name = "class 2"

[[record]]
compound = "Cc1nc2cccc(-c3cc4c([nH]3)CCNC4=O)c2nc1NC(C)(C)C(=O)O"
target_or_system = "Pim-1 (Homo sapiens (Human), UniProt P11309)"
class_name = "class 0"

[[record]]
compound = "COCCn1c(NC(C)(C)C)nc2c(-c3cc4c([nH]3)CNC4=O)cccc2c1=O"
target_or_system = "Pim-1 (Homo sapiens (Human), UniProt P11309)"
class_name = "class 2"

[[record]]
compound = "Cc1nc2ccc(F)c(-c3cc4c([nH]3)CCNC4=O)c2nc1NC1(C)CC1 [Example 369, 2,2,2-trifluoroacetate]"
target_or_system = "Pim-1 (Homo sapiens (Human), UniProt P11309)"
class_name = "class 2"

[[record]]
compound = "Cc1nc2cccc(-c3cc4c([nH]3)CCNC4=O)c2nc1N[C@@H]1CCCN(C(=O)OC(C)(C)C)C1"
target_or_system = "Pim-1 (Homo sapiens (Human), UniProt P11309)"
class_name = "class 0"

[[record]]
compound = "C[C@H]1NC(=O)c2cc(-c3cccc4c(=O)n(C5CC5)c(NC5(C)CCC5)nc34)[nH]c21"
target_or_system = "Pim-1 (Homo sapiens (Human), UniProt P11309)"
class_name = "class 2"

[[record]]
compound = "Cc1nc2cccc(-c3cc4c([nH]3)CCNC4=O)c2nc1NC1(C)CCCC1"
target_or_system = "Pim-1 (Homo sapiens (Human), UniProt P11309)"
class_name = "class 2"

[[record]]
compound = "Cc1nc2cccc(-c3cc4n(c3)CCNC4=O)c2nc1NC1CC1 [Example 233, 2,2,2-trifluoroacetate]"
target_or_system = "Pim-1 (Homo sapiens (Human), UniProt P11309)"
class_name = "class 0"

[[record]]
compound = "CC(C)CC1CNC(=O)c2cc(-c3cccc4cccnc34)[nH]c21 (racemic)"
target_or_system = "Pim-1 (Homo sapiens (Human), UniProt P11309)"
class_name = "class 0"

[[record]]
compound = "Cc1cccc(C)c1-c1cnc2cccc(-c3cc4c([nH]3)CCNC4=O)c2n1"
target_or_system = "Pim-1 (Homo sapiens (Human), UniProt P11309)"
class_name = "class 0"

[[record]]
compound = "Cc1nc2cccc(-c3cc4c([nH]3)[C@@H](C)NC4=O)c2nc1N[C@H]1CCC[C@@H](NC(=O)[C@H](N)CO)C1"
target_or_system = "Pim-1 (Homo sapiens (Human), UniProt P11309)"
class_name = "class 2"

[[record]]
compound = "Cc1nc2cccc(-c3cc4c([nH]3)CCNC4=O)c2nc1NC(C)(C)CN1CCOCC1"
target_or_system = "Pim-1 (Homo sapiens (Human), UniProt P11309)"
class_name = "class 0"

[[record]]
compound = "Cc1nc2ccc(F)c(-c3cc4c([nH]3)[C@@H]([C@H](C)O)NC4=O)c2nc1NC1CC1"
target_or_system = "Pim-1 (Homo sapiens (Human), UniProt P11309)"
class_name = "class 1"

[[record]]
compound = "CC(C)(C)Nc1nc2c(-c3cc4c([nH]3)CCNC4=O)cccc2nc1F"
target_or_system = "Pim-1 (Homo sapiens (Human), UniProt P11309)"
class_name = "class 1"

[[record]]
compound = "Cc1nc2cccc(-c3cc4c([nH]3)CCNC4=O)c2nc1NC(C)(C)CO"
target_or_system = "Pim-1 (Homo sapiens (Human), UniProt P11309)"
class_name = "class 1"

